Reference source: patent US20040086502A1

# Target Or Test System: T1, VEGF(8-109) (UniProt P15692 214-315)
# T1 construct: range 8-109; Covalently coupled to the BIACORE chip (EDC/NHS); also called vascular endothelial growth factor
# T1 sequence (looked up): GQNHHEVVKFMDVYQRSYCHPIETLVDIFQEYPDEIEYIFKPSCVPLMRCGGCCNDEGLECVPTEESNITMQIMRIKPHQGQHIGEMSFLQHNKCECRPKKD
# Test: SPR (BIACORE-2000), Fab injected over immobilised VEGF(8-109), 25 C

Binder	Qualifier Sign	koff [s⁻¹]
Y0239-19 Fab (Fab, V domains shown, also called insertion variant with the VNERK motif) VH: EVQLVESGGGLVQPGGSLRLSCAASGYTFTNYGMNWVRQAPGKGLEWVGWINTYTGEPTYAADFKRRFTFSLDTSKSTAYLQMNSLRAEDTAVYYCAKYPHYYVNERKSHWYFDVWGQGTL VL: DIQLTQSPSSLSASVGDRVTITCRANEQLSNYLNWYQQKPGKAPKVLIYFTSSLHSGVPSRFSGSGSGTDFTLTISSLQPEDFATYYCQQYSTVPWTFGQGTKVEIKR	≤	1e-05
Y0313-2 Fab (Fab, V domains shown, Combines the CDR H3 insertion of Y0239-19 (VNERK) with T28D/N31H; also called CDR combination variant Y0313-2; Insert-Fab Y0313-2) VH: EVQLVESGGGLVQPGGSLRLSCAASGYDFTHYGMNWVRQAPGKGLEWVGWINTYTGEPTYAADFKRRFTFSLDTSKSTAYLQMNSLRAEDTAVYYCAKYPHYYVNERKSHWYFDVWGQGTL VL: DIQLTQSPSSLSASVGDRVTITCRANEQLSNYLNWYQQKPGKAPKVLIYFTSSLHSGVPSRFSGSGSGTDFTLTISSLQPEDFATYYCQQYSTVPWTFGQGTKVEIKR	=	1.1e-05
Y0239-12 Fab (Fab, V domains shown) VH: EVQLVESGGGLVQPGGSLRLSCAASGYTFTNYGMNWVRQAPGKGLEWVGWINTYTGEPTYAADFKRRFTFSLDTSKSTAYLQMNSLRAEDTAVYYCAKYPHYYAHEKKSHWYFDVWGQGTL VL: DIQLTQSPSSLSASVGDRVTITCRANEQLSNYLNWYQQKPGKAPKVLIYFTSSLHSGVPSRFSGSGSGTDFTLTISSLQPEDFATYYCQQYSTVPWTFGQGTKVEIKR	=	3.4e-05
Y0242-1 Fab (Fab, V domains shown, Clone from library YC-90, made on the Y0192 template; also called point mutant Y54W) VH: EVQLVESGGGLVQPGGSLRLSCAASGYTFTNYGMNWVRQAPGKGLEWVGWINTWTGEPTYAADFKRRFTFSLDTSKSTAYLQMNSLRAEDTAVYYCAKYPHYYGSSHWYFDVWGQGTL VL: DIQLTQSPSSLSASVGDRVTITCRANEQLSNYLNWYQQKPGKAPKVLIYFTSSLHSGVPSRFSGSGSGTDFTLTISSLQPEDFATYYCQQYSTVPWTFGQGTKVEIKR	=	8.6e-05
Y0239-8 Fab (Fab, V domains shown) VH: EVQLVESGGGLVQPGGSLRLSCAASGYTFTNYGMNWVRQAPGKGLEWVGWINTYTGEPTYAADFKRRFTFSLDTSKSTAYLQMNSLRAEDTAVYYCAKYPHYYLRDGRSSHWYFDVWGQGTL VL: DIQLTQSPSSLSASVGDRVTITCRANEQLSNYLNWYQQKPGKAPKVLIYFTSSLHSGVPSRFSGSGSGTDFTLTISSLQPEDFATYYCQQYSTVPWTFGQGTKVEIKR	=	1.8e-05
